These entries and their values trace back to ChEMBL document CHEMBL1201862.

Kindly state GI50 for each of the entries shown.
Tested on: U-251
Assay: NCI tumour cell line growth inhibition, 48 h
Active and inactive are the calls of the source. No stated cut-off is given here; in the data, active = GI50 up to about 1.1 µM and inactive = higher.

q: Tell me the measured GI50 of COC(=O)C(NC(=O)C(CC(=O)OC(C)(C)C)NC(=O)OC(C)(C)C)C(O)c1ccccc1 (stereo not given) , please.
a: > 100 µM (inactive)

q: Query (compound): O=C(O)[C@@H](NS(=O)(=O)c1ccc(F)cc1)c1ccccc1 ; field requested: GI50
a: > 100 µM (inactive)

q: Could you tell me which GI50 is on file for COc1cc(/C=C2\Cc3cc(OC)c(OC)cc3C2=O)cc(OC)c1 ?
a: 35.8 µM (inactive)

q: I have this compound here, COc1cc(OC)cc(C(=O)CC(=O)c2cc(OC)cc(OC)c2)c1 , and I need its recorded GI50.
a: > 100 µM (inactive)

q: Could you tell me which GI50 is on file for CCOC(=O)c1nc2c3c(ncn2n1)Oc1c(c(-c2ccccc2)nn1-c1ccccc1)C3c1ccc(Cl)cc1 (stereo not given) ?
a: > 100 µM (inactive)
